tested on: C. albicans; assay: Antimicrobial serial tube dilution, MIC and MFC; format: cell-based, Candida albicans MTCC 227; details: Candida albicans, read-out: C. albicans MFC
This listing pairs compounds with measured MFC.

| SMILES_ENTRY | VALUE_UNITS | MFC |
| --- | --- | --- |
| CC(=O)c1ccc(O)c(N=Nc2cccc(Cl)c2Cl)c1 | µg/mL | 62.5 |
| COc1ccccc1/C=C\C(=O)c1ccc(N=Nc2c(O)cccc2O)cc1 | µg/mL | 62.5 |
| O=C(/C=C\c1ccccc1[N+](=O)[O-])c1cccc(N=Nc2cccc(Cl)c2Cl)c1O | µg/mL | 250 |
| CC(=O)c1ccc(N=Nc2c(O)cccc2O)cc1 | µg/mL | 125 |
| O=C(/C=C\c1cc(Br)ccc1O)c1ccc(N=Nc2ccc([N+](=O)[O-])cc2Cl)c(O)c1 | µg/mL | 31.2 |
| O=C(/C=C/c1ccc(Cl)cc1Cl)c1ccc(O)c(N=Nc2cccc(Cl)c2Cl)c1 | µg/mL | 125 |
| O=Cc1ccc(/C=C\C(=O)c2cccc(N=Nc3cccc(Cl)c3Cl)c2O)cc1 | µg/mL | 62.5 |
| O=C(/C=C\c1ccco1)c1ccc(N=Nc2c(O)cccc2O)cc1 | µg/mL | 125 |
| O=C(/C=C\c1cc(Br)ccc1O)c1ccc(N=Nc2c(O)cccc2O)cc1 | µg/mL | 125 |
| O=Cc1ccc(/C=C\C(=O)c2ccc(N=Nc3c(O)cccc3O)cc2)cc1 | µg/mL | 125 |
| O=C(/C=C\c1ccc(Cl)cc1Cl)c1cccc(N=Nc2cccc(Cl)c2Cl)c1O | µg/mL | 125 |
